test system: SNB-75 CNS; assay: NCI-60 one-dose screen, 48 h (100 = growth as untreated, 0 = no growth, -100 = all killed); details: 10 µM unless noted
About 83,000 compounds went through this panel and 20% of them were active in at least one assay; those are over-represented in the sample as a whole.
readout-type: growth (%)
The reply should be a number in %, with the unit left off.

Task item: Item: `C=C(CC(=O)OC)C(C)=O` Test system: SNB-75 CNS Read-out: growth Value: ?
Reply: 110

Task item: Item: `Cc1ccccc1-n1nnc(C(=O)Nc2nc3ccc(F)cc3s2)c1C` Test system: SNB-75 CNS Read-out: growth Value: ?
Reply: 64

Task item: Item: `N#C/C(C(=O)c1ccccc1)=C1/C(=O)Nc2ccc(Br)cc21` Test system: SNB-75 CNS Read-out: growth Value: ?
Reply: 70.5

Task item: Item: `c1ccc(-c2nnc(-c3c[nH]c4ncccc34)s2)cc1` Test system: SNB-75 CNS Read-out: growth Value: ?
Reply: 59.6

Task item: Item: `O=c1c2c3c(sc2n2cnnc2n1Cc1ccccc1)CCCC3` Test system: SNB-75 CNS Read-out: growth Value: ?
Reply: 111

Task item: Item: `CCOc1cc(NC(=O)c2ccccc2)c(OCC)cc1N` Test system: SNB-75 CNS Read-out: growth Value: ?
Reply: 106

Task item: Item: `CC(C)(C)c1cc(C(=O)Nc2ccc(C(=O)NCCN)cc2)cc(C(C)(C)C)c1` Test system: SNB-75 CNS Read-out: growth Value: ?
Reply: 55.6

Task item: Item: `Cc1ccc(NCCN2CCCCC2)c2c(=O)c3ccccc3sc12` Test system: SNB-75 CNS Read-out: growth Value: ?
Reply: 38.7

Task item: Item: `COc1ccc(OC)c(NC=O)c1` Test system: SNB-75 CNS Read-out: growth Value: ?
Reply: 100

Task item: Item: `C=CCc1nc2ccccc2s1` Test system: SNB-75 CNS Read-out: growth Value: ?
Reply: 90.2

Task item: Item: `Nc1ccc(Cl)c([N+](=O)[O-])c1` Test system: SNB-75 CNS Read-out: growth Value: ?
Reply: 89.3

Task item: Item: COc1ccc2c(c1)C(C)Cc1c(Cl)nc(C)nc1N2C (configuration not stated) Test system: SNB-75 CNS Read-out: growth Value: ?
Reply: 39.3

* * *

Assign growth to each entry below.
System: MDA-MB-231 breast
Assay: NCI-60 one-dose screen, 48 h (100 = growth as untreated, 0 = no growth, -100 = all killed)
Conditions: 10 µM unless noted
Experimental: Cells are grown in 96 well plates and exposed to the test compound for 48 hours. Compounds are tested at a single concentration, which is 10^-5 M for most compounds. The reported endpoint is percent growth (GI% or GIPRCNT), where numbers from 0 - 100% represent growth inhibition, and numbers from -100% - 0 represent cell death. For example, a value of 40 represents 60% growth inhibition. A value of 0 means no net growth occurred over the course of the experiment. […]
Compounds without any hit were thinned out: in the full panel of roughly 83,000, 20% have a hit. The source made the active and inactive calls. Rule for the calls: active = growth percent below 10; inactive = the rest.

Task item: Returns the measured growth for the input compound. Input: `CC(C)C1=NOC(=O)C1=Cc1cn(-c2cccnc2)nc1-c1ccccc1`
Reply: 96% (inactive)

Task item: Returns the measured growth for the input compound. Input: `O=C(OCc1ccc2c(Cl)cc(Cl)c(O)c2n1)N1CCN(C(=O)c2cc3cc(F)ccc3[nH]2)CC1`
Reply: 28.2% (inactive)

Task item: Returns the measured growth for the input compound. Input: `COCc1nc2ccccc2[nH]1`
Reply: 100% (inactive)

Task item: Returns the measured growth for the input compound. Input: `CC1(C)CC[C@]2(C(=O)OC(=O)[C@]34CCC(C)(C)C[C@@H]3C3=CC[C@@H]5[C@@]6(C)CCC(=O)C(C)(C)[C@@H]6CC[C@@]5(C)[C@]3(C)CC4)CC[C@]3(C)C(=CC[C@@H]4[C@@]5(C)CCC(=O)C(C)(C)[C@@H]5CC[C@]43C)[C@H]2C1`
Reply: 45.7% [100 µM] (inactive)

Task item: Returns the measured growth for the input compound. Input: CCCCCCCCN(CCCCCCCC)CC(O)c1ccc(Cl)c(C)c1Cl (stereo not drawn)
Reply: 59.1% (inactive)

Task item: Returns the measured growth for the input compound. Input: `C[C@H]1[C@H](C)CC[C@]2(C(=O)O)CC[C@]3(C)C(=CC[C@@H]4[C@@]5(C)C/C(=C/c6ccco6)C(=O)C(C)(C)[C@@H]5CC[C@]43C)[C@H]12`
Reply: -81.5% [100 µM] (active)

Task item: Returns the measured growth for the input compound. Input: `COc1cc2c(cc1OC(C)=O)C(=O)CCCC2`
Reply: 112% (inactive)

Task item: Returns the measured growth for the input compound. Input: `Oc1ccc(N=Nc2nccs2)c(O)c1`
Reply: 54.9% (inactive)

* * *

test system: MDA-MB-231 breast; assay: NCI-60 one-dose screen, 48 h (100 = growth as untreated, 0 = no growth, -100 = all killed); conditions: 10 µM unless noted
Compounds without any hit were thinned out: in the full panel of roughly 83,000, 20% have a hit.
# if measured growth < 60%: Yes  # else: No

Task item: Is 60% strictly greater than the compound's reported growth? compound: `O=S(=O)(c1ccc(N/N=C\c2ccccc2Cl)cc1)c1ccc(N/N=C/c2ccccc2Cl)cc1`
Reply: No

Task item: Is 60% strictly greater than the compound's reported growth? compound: `COc1ncc(-c2ccc3nccc(C#CCCCCC(=O)NO)c3c2)cc1NS(=O)(=O)c1ccc(F)cc1F`
Reply: Yes

Task item: Is 60% strictly greater than the compound's reported growth? compound: `C[C@@H]1C[C@H]2C(=O)O[C@@H](C)[C@H](NC(=O)[C@H](Cc3cc(F)cc(F)c3)NC(=O)Nc3ccc(C4CC4)cc3F)C(=O)N3CCC[C@H]3C(=O)N3CCCC[C@H]3C(=O)N[C@@H](C)C(=O)N2C1`
Reply: Yes

Task item: Is 60% strictly greater than the compound's reported growth? compound: `CCCc1cc2cc(-n3nc(C)c4c3CC(C)(C)CC4=O)cc(NC3CCSCC3)c2c(=O)[nH]1`
Reply: Yes

Task item: Is 60% strictly greater than the compound's reported growth? compound: Fc1cc2[nH]ncc2c2c3c(c(-c4cn[nH]c4C(F)(F)F)nc12)C1CCC3C1 (stereo not given)
Reply: Yes

Task item: Is 60% strictly greater than the compound's reported growth? compound: CCCCN(CCCC)CC(O)c1ccc(OCc2ccccc2)c2ccccc12 (stereo not given)
Reply: No

Task item: Is 60% strictly greater than the compound's reported growth? compound: COc1cc2c(c(OC)c1)C1c3cc(OC)ccc3NC(=O)N1CC2 (stereo not given)
Reply: No

Task item: Is 60% strictly greater than the compound's reported growth? compound: `CN(C)CCOc1ccc(/C(=C(/CCCl)c2ccccc2)c2ccccc2)cc1`
Reply: Yes

Task item: Is 60% strictly greater than the compound's reported growth? compound: CCN(CC)c1ccc2cc(C(Nc3ccc(C)cc3)c3nnnn3C(C)(C)C)c(=O)oc2c1 (stereo not given)
Reply: No

Task item: Is 60% strictly greater than the compound's reported growth? compound: CCN(CC)c1ccc2cc(NC(=O)OCCNC(=O)CCNC(=O)[C@H](CC(C)C)NC(=O)C(C)(C)NC(=O)C(C)(C)NC(=O)[C@H](CC(C)C)NC(=O)CCNC(=O)C(C)(C)NC(=O)[C@H](CC(C)C)NC(=O)CCNC(=O)[C@@](C)(CC)NC(=O)[C@H](C)NC(=O)CCNC(=O)C(C)(C)NC(=O)[C@H](C)NC(=O)[C@@H]3CCCN3C(=O)[C@@](C)(CC)NC(=O)[C@H](Cc3ccccc3)NC(=O)C3CCCN3C(=O)C(C)(C)NC(=O)C3CCCN3C(=O)C(C)(C)NC(C)=O)c(=O)oc2c1 (stereo not given in full)
Reply: Yes

Task item: Is 60% strictly greater than the compound's reported growth? compound: `O=C(O)c1ccccc1C(F)(F)F`
Reply: No

Task item: Is 60% strictly greater than the compound's reported growth? compound: `C[n+]1cccc(NC(=O)c2ccc3ccc4ccc(C(=O)Nc5ccc[n+](C)c5)nc4c3n2)c1`
Reply: Yes

Task item: Is 60% strictly greater than the compound's reported growth? compound: `COCCCNc1nc(NC(=O)c2cc(OC)cc(OC)c2)cc(-c2cccnc2)n1`
Reply: No

* * *

system: NCI-H460 lung; assay: NCI-60 one-dose screen, 48 h (100 = growth as untreated, 0 = no growth, -100 = all killed); settings: 10 µM unless noted
About 83,000 compounds went through this panel and 20% of them were active in at least one assay; those are over-represented in the sample as a whole.
readout-type: growth (%)
The reply should be a number in %, with the unit left off.

Task item: Item: `COc1ncc(-c2ccc3nccc(C#CCCCCC(=O)O)c3c2)cc1NS(=O)(=O)c1ccc(F)cc1F` Test system: NCI-H460 lung Read-out: growth Value: ?
Reply: 12.3

Task item: Item: `COc1ccc(-c2cc(-c3ccc(Cl)cc3)nc(SCCCCCCC(=O)NO)n2)cc1` Test system: NCI-H460 lung Read-out: growth Value: ?
Reply: 14.9

Task item: Item: `CCCN1CC(c2ccc(OC)c(OC)c2)=C(c2cn(C(=O)OCC)c3ccccc23)C1=O` Test system: NCI-H460 lung Read-out: growth Value: ?
Reply: 37.1

Task item: Item: `O=C(CCCSc1nc(-c2ccccc2)cc(-c2ccccc2)n1)NO` Test system: NCI-H460 lung Read-out: growth Value: ?
Reply: 6.46

Task item: Item: `CN(C)C(=S)Sc1ccc([N+](=O)[O-])cc1[N+](=O)[O-]` Test system: NCI-H460 lung Read-out: growth Value: ?
Reply: -41.6
